Assay Target: Cytochrome P450 2C9 (Homo sapiens)
Assay Summary: qHTS Assay for Inhibitors and Substrates of Cytochrome P450 2C9 (AID 883); further: nearly all actives have a fitted effect of over 60% in size
Applied Conditions: recombinant CYP2C9, luciferin-H luminescence, 60 min; series mostly up to 11.4 µM
Results filed as inconclusive are left out. The source made the active and inactive calls. The call rests on the fitted dose curve; in most records, active means well fitted inhibition curve with a large enough effect; inconclusive means small, poorly fitted or top-dose-only effect; inactive means no such curve, though single readings can be large or run the other way.
Property Name: outcome

{"Compound": "CCCCCCC1=Cc2cc(OC)c(OC)cc2C(C2(C(=O)OCC)CCCC2=O)O1 (centres undefined)", "Recorded Result": "inactive"}
{"Compound": "CCOC(=O)[C@]1(C(/C=C/c2ccco2)NC(=O)OC)CCCC1=O (some centres undefined)", "Recorded Result": "inactive"}
{"Compound": "COC(=O)NC(CC(C)=O)c1cccc(F)c1 (centres undefined)", "Recorded Result": "inactive"}
{"Compound": "CC1(C)OC(C(O)(c2cc(F)c(F)c(F)c2)c2cc(F)c(F)c(F)c2)C(C(O)(c2cc(F)c(F)c(F)c2)c2cc(F)c(F)c(F)c2)O1 (centres undefined)", "Recorded Result": "inactive"}
{"Compound": "CC12C=C(/C=C/C=C/c3ccco3)C(C)(C1)C(/C=C/c1ccco1)CC2=O (centres undefined)", "Recorded Result": "inactive"}
{"Compound": "C=CCOC(=O)C(C(C)=O)C(NC(=O)OC)c1ccc2ccccc2c1 (centres undefined)", "Recorded Result": "inactive"}
{"Compound": "CCCCc1nc2c(c3c1CC(C)OC3)CN(CCC(C)C)CC2 (centres undefined)", "Recorded Result": "inactive"}
{"Compound": "CCOP(=O)(CC(C(C)=O)C(O)c1ccccc1)OCC (centres undefined)", "Recorded Result": "inactive"}
{"Compound": "COC(=O)C1=C(C)N(Cc2ccccc2)C2=C(C(=O)c3ccccc3)C(c3ccccc3)[C@@](O)(C(=O)OC)C(=O)N2C1c1ccccc1 (some centres undefined)", "Recorded Result": "inactive"}

----------
Assay Target: Vitamin D3 receptor (Homo sapiens) (UniProt P11473)
Sequence (P11473 whole entry, looked up): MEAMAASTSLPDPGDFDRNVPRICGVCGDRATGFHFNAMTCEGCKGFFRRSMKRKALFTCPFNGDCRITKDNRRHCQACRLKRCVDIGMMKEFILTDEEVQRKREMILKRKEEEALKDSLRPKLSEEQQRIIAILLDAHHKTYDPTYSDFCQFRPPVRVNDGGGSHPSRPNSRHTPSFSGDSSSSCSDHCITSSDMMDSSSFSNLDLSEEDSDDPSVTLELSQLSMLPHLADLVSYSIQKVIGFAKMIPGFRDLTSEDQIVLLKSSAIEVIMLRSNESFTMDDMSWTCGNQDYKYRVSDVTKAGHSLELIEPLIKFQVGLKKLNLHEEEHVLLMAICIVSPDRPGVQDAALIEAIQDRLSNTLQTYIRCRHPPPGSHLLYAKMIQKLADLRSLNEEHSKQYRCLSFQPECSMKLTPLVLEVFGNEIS
Assay Summary: qHTS assay for small molecule antagonists of vitamin D receptor signaling (AID 588541);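 further: receptor activated by calcitriol during compound treatment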
Applied Conditions: HEK293T VDR-UAS-bla, beta-lactamase ratio, antagonist mode; series mostly up to 76.7 µM
Inconclusive results are not listed. The source made the active and inactive calls. The call rests on the fitted dose curve.
Property Name: outcome

{"Molecule": "C=CC(=O)NC(C)(C)CS(=O)(=O)O", "Property Name": "outcome", "Recorded Result": "inactive"}
{"Molecule": "CC(C)C(=O)OC(=O)C(C)C", "Property Name": "outcome", "Recorded Result": "inactive"}
{"Molecule": "CC/C=C/CCCCCCCCCCOC(C)=O", "Property Name": "outcome", "Recorded Result": "inactive"}
{"Molecule": "C=C(C)C(=O)OCCC[Si](Cl)(Cl)Cl", "Property Name": "outcome", "Recorded Result": "inactive"}
{"Molecule": "FC(F)(F)c1ccc(Cl)c(Cl)c1", "Property Name": "outcome", "Recorded Result": "inactive"}
{"Molecule": "O=C(O)CCCCCCC(=O)O", "Property Name": "outcome", "Recorded Result": "inactive"}
{"Molecule": "CC1(C)[C@@H](C=C(Cl)Cl)[C@@H]1C(=O)OCc1cccc(Oc2ccccc2)c1", "Property Name": "outcome", "Recorded Result": "inactive"}
{"Molecule": "CC(C)(C)c1ccc(C(=O)O)cc1", "Property Name": "outcome", "Recorded Result": "inactive"}
{"Molecule": "CCCCCCC(O)CCCCCCCCCCC(=O)OC (stereo not drawn)", "Property Name": "outcome", "Recorded Result": "inactive"}
{"Molecule": "CCCCC(CC)COC(=O)CS (stereo not drawn)", "Property Name": "outcome", "Recorded Result": "inactive"}
{"Molecule": "C=CC(=O)OCCOc1ccccc1", "Property Name": "outcome", "Recorded Result": "inactive"}
{"Molecule": "CCOC(=O)C(C)Oc1ccc(Oc2cnc3cc(Cl)ccc3n2)cc1 (stereo not drawn)", "Property Name": "outcome", "Recorded Result": "inactive"}
{"Molecule": "Cc1ccc(S(=O)(=O)N=C=O)cc1", "Property Name": "outcome", "Recorded Result": "inactive"}
{"Molecule": "CCNc1nc(NC(C)CC)nc(OC)n1 (stereo not drawn)", "Property Name": "outcome", "Recorded Result": "inactive"}
{"Molecule": "CCc1c(C(=O)O)c(=O)cnn1-c1ccc(Cl)cc1", "Property Name": "outcome", "Recorded Result": "inactive"}
{"Molecule": "C=CCOc1nc(OCC=C)nc(OCC=C)n1", "Property Name": "outcome", "Recorded Result": "inactive"}
{"Molecule": "C[Si]1(C)O[Si](C)(C)O[Si](C)(C)O[Si](C)(C)O1", "Property Name": "outcome", "Recorded Result": "inactive"}
{"Molecule": "CC(C)(C)C(O)/C(=C\\c1ccc(Cl)cc1)n1cncn1 (stereo not drawn)", "Property Name": "outcome", "Recorded Result": "inactive"}
{"Molecule": "O=S(=O)(O)c1cc(S(=O)(=O)O)c2c(N=Nc3ccccc3)c(O)ccc2c1", "Property Name": "outcome", "Recorded Result": "inactive"}
{"Molecule": "CCOCCOCCOCC", "Property Name": "outcome", "Recorded Result": "inactive"}
{"Molecule": "CCCCOC(=O)[C@@H](C)Oc1ccc(Oc2ccc(C(F)(F)F)cn2)cc1", "Property Name": "outcome", "Recorded Result": "inactive"}
{"Molecule": "COC(=O)c1ccccc1C(=O)O", "Property Name": "outcome", "Recorded Result": "inactive"}
{"Molecule": "C=C(C)C(=O)OCCCCCCCCCCCCCCCC", "Property Name": "outcome", "Recorded Result": "inactive"}
{"Molecule": "O=S(c1ccc(Cl)cc1)c1cc(Cl)c(Cl)cc1Cl (stereo not drawn)", "Property Name": "outcome", "Recorded Result": "inactive"}
{"Molecule": "CCCCCc1ccc(N)cc1", "Property Name": "outcome", "Recorded Result": "inactive"}
{"Molecule": "CCCCCCc1ccc(N)cc1", "Property Name": "outcome", "Recorded Result": "inactive"}
{"Molecule": "CC1=CC(=O)CC(C)(C)C1", "Property Name": "outcome", "Recorded Result": "inactive"}
{"Molecule": "CCCCCCCCCCCCCCC", "Property Name": "outcome", "Recorded Result": "inactive"}
{"Molecule": "CCCCC(CC)COC(=O)/C=C\\C(=O)OCC(CC)CCCC (stereo not drawn)", "Property Name": "outcome", "Recorded Result": "inactive"}
{"Molecule": "CC(C)c1ccc(C(C)C)cc1", "Property Name": "outcome", "Recorded Result": "inactive"}
{"Molecule": "CC(=O)/C=C/C1C(C)=CCCC1(C)C (stereo not drawn)", "Property Name": "outcome", "Recorded Result": "inactive"}
{"Molecule": "CC(=O)OC1CCC(C(C)(C)C)CC1 (stereo not drawn)", "Property Name": "outcome", "Recorded Result": "inactive"}
{"Molecule": "CCCCC(CC)C(=O)OCCOCCOCCOC(=O)C(CC)CCCC (stereo not drawn)", "Property Name": "outcome", "Recorded Result": "inactive"}
{"Molecule": "Nc1cc(Cl)nc(C(=O)O)c1Cl", "Property Name": "outcome", "Recorded Result": "inactive"}
{"Molecule": "O=C(Cl)c1cc(Cl)cc(Cl)c1", "Property Name": "outcome", "Recorded Result": "inactive"}
{"Molecule": "O=[N+]([O-])C(CO)(CO)CO", "Property Name": "outcome", "Recorded Result": "inactive"}
{"Molecule": "CCSC(=O)N(CC(C)C)CC(C)C", "Property Name": "outcome", "Recorded Result": "inactive"}
{"Molecule": "c1ccc2c(c1)ccc1c3ccccc3ccc21", "Property Name": "outcome", "Recorded Result": "inactive"}
{"Molecule": "C=C(C)C(=O)OCCOCCOCCOC(=O)C(=C)C", "Property Name": "outcome", "Recorded Result": "inactive"}
{"Molecule": "CCCCCCCCCCCCCO", "Property Name": "outcome", "Recorded Result": "inactive"}
{"Molecule": "CCCCCCC(O)CCCCCCCCCCC(=O)O (stereo not drawn)", "Property Name": "outcome", "Recorded Result": "inactive"}
{"Molecule": "CCCOC(=O)NCCCN(C)C", "Property Name": "outcome", "Recorded Result": "inactive"}
{"Molecule": "CSc1ccc(Cl)cc1", "Property Name": "outcome", "Recorded Result": "inactive"}
{"Molecule": "CN(C)c1nc(=O)n(C2CCC(O)CC2)c(=O)n1C (stereo not drawn)", "Property Name": "outcome", "Recorded Result": "inactive"}
{"Molecule": "Cc1cc(C)c(N)c(Cl)c1", "Property Name": "outcome", "Recorded Result": "inactive"}
{"Molecule": "O=S(=O)(O)c1ccc(N=Nc2c(O)ccc3cc(S(=O)(=O)O)ccc23)cc1", "Property Name": "outcome", "Recorded Result": "inactive"}
{"Molecule": "O=C(O)CCCCCCCCCCC(=O)O", "Property Name": "outcome", "Recorded Result": "inactive"}
{"Molecule": "C/C=C/C=C/CCCCCCCO", "Property Name": "outcome", "Recorded Result": "inactive"}
{"Molecule": "COC(=O)c1ccc(I)cc1S(=O)(=O)NC(=O)Nc1nc(C)nc(OC)n1", "Property Name": "outcome", "Recorded Result": "inactive"}
{"Molecule": "CSC(=O)c1cccc2nnsc12", "Property Name": "outcome", "Recorded Result": "inactive"}
{"Molecule": "CC1(C)CC(OC(=O)CCCCCCCCC(=O)OC2CC(C)(C)NC(C)(C)C2)CC(C)(C)N1", "Property Name": "outcome", "Recorded Result": "inactive"}
{"Molecule": "CCCCCCCCCCO", "Property Name": "outcome", "Recorded Result": "inactive"}
{"Molecule": "CC/C=C\\CCOC(=O)c1ccccc1O", "Property Name": "outcome", "Recorded Result": "inactive"}
{"Molecule": "OCCOCCOCCOCCO", "Property Name": "outcome", "Recorded Result": "inactive"}
{"Molecule": "C1CCC2(CCCCO2)OC1", "Property Name": "outcome", "Recorded Result": "inactive"}
{"Molecule": "CCCCOCCOCCOC(C)=O", "Property Name": "outcome", "Recorded Result": "inactive"}
{"Molecule": "C#CCOC(=O)[C@@H](C)Oc1ccc(Oc2ncc(Cl)cc2F)cc1", "Property Name": "outcome", "Recorded Result": "inactive"}
{"Molecule": "OCCOCCOCCOCCOCCO", "Property Name": "outcome", "Recorded Result": "inactive"}
